target: panel of more than 300 wild-type and mutant kinases (313 kinase panel) (Homo sapiens); test: Kinase profiling in a biochemical assay panel (mobility shift assays and ELISA), %-inhibition at 1 μM; selectivity entropy; conditions: kinase HCK; compound at 1 μM
MEASURED_METRIC: %-inhibition of HCK

Below, 6 compounds whose answers are already recorded.
INSERT INTO measurements (compound, measured_metric, obs_value) VALUES
  ('CC(C)(C)c1nc(-c2cccc(NS(=O)(=O)c3c(F)cccc3F)c2F)c(-c2ccnc(N)n2)s1', '%-inhibition of HCK', '57%'),
  ('Cc1ccc(Nc2nccc(N(C)c3ccc4c(C)n(C)nc4c3)n2)cc1S(N)(=O)=O', '%-inhibition of HCK', '67%'),
  ('COc1cc2nccc(Oc3ccc(NC(=O)C4(C(=O)Nc5ccc(F)cc5)CC4)cc3)c2cc1OC [cabozantinib]', '%-inhibition of HCK', '95%'),
  ('O=S(=O)(c1cccc2cnccc12)N1CCCNCC1', '%-inhibition of HCK', '-2.15%'),
  ('CNC(=O)c1cc(Oc2ccc(NC(=O)Nc3ccc(Cl)c(C(F)(F)F)c3)c(F)c2)ccn1', '%-inhibition of HCK', '59%'),
  ('CC(=O)Nc1cccc(-n2c(=O)n(C3CC3)c(=O)c3c(Nc4ccc(I)cc4F)n(C)c(=O)c(C)c32)c1', '%-inhibition of HCK', '-2.84%');

Data point: C[C@@H](Oc1cc(-c2cnn(C3CCNCC3)c2)cnc1N)c1c(Cl)ccc(F)c1Cl ; %-inhibition of HCK = 26%

Data point: N#CC[C@H](C1CCCC1)n1cc(-c2ncnc3[nH]ccc23)cn1 ; %-inhibition of HCK = 9%

====

Target: panel of more than 300 wild-type and mutant kinases (313 kinase panel) (Homo sapiens)
Sequence (P33981 1-857): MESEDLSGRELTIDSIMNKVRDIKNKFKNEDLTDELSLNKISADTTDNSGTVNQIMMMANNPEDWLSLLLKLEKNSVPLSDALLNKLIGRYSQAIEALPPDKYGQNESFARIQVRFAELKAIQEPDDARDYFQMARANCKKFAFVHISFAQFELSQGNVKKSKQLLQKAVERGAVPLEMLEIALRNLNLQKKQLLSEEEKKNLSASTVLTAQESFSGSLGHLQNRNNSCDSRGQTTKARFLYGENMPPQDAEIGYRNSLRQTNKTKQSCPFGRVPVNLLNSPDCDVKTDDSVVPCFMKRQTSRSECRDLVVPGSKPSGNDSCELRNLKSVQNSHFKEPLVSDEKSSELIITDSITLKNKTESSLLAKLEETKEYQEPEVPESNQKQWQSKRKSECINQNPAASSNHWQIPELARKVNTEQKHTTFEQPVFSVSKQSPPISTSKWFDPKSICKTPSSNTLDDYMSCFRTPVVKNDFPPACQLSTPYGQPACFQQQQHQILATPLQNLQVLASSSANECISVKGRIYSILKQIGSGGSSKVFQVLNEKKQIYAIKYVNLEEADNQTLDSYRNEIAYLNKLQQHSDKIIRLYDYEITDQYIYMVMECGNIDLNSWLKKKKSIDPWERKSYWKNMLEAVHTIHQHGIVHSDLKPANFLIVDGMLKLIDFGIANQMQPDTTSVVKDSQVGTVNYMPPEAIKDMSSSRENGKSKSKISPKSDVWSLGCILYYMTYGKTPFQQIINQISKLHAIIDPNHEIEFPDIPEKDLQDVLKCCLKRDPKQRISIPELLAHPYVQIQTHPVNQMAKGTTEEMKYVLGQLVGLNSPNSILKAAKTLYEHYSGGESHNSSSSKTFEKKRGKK
Experiment: Kinase profiling in a biochemical assay panel (mobility shift assays and ELISA), %-inhibition at 1 μM; selectivity entropy
Settings: kinase TTK; compound at 1 μM
Parameter: %-inhibition of TTK. Scope: all listed entries.
State the answer as a number, implicitly in %.

Below, 2 compounds whose answers are already recorded.
INSERT INTO results (structure_notation, assayed_system, obs_value) VALUES
  ('C[C@@H](Oc1cc(-c2cnn(C3CCNCC3)c2)cnc1N)c1c(Cl)ccc(F)c1Cl', 'panel of more than 300 wild-type and mutant kinases (313 kinase panel) (Homo sapiens)', -9),
  ('CO[C@H]1C[C@@H]2CC[C@@H](C)[C@@](O)(O2)C(=O)C(=O)N2CCCC[C@H]2C(=O)O[C@H]([C@H](C)C[C@@H]2CC[C@@H](OC(=O)C(C)(CO)CO)[C@H](OC)C2)CC(=O)[C@H](C)/C=C(\C)[C@@H](O)[C@@H](OC)C(=O)[C@H](C)C[C@H](C)/C=C/C=C/C=C/1C', 'panel of more than 300 wild-type and mutant kinases (313 kinase panel) (Homo sapiens)', -22);

Now take the following compound into account.
Data point: CS(=O)(=O)CCNCc1ccc(-c2ccc3ncnc(Nc4ccc(OCc5cccc(F)c5)c(Cl)c4)c3c2)o1 ; %-inhibition of TTK = 0.257
